shrunken log2 fold change by entry:
test system: Escherichia coli TOP10; assay: shrunken log2 fold change of peptide-encoding DNA abundance (4.5 h post-induction vs induction); higher = less antimicrobial activity (less host growth inhibition); conditions: time post-induction: 4.5 h; library: site-saturation at positions 5, 18, 19, 20;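 also: peptides expressed intracellularly from a pBAD plasmid library in pooled LB shake-flask culture, induced with 0.3% L-arabinose, DNA abundance read by NGS, three biological replicates, DESeq2 with apeglm shrinkage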
result.type: shrunken log2 fold change

> print(dat)
           record.sequence                result.type  reading
1  RRIRRRPPRLPRPRPRPNETPRP  shrunken log2 fold change  -0.0619
2  RRIRHRPPRLPRPRPRPEKAPRP  shrunken log2 fold change  -0.0238
3  RRIRNRPPRLPRPRPRPAFGPRP  shrunken log2 fold change   -0.189
4  RRIRWRPPRLPRPRPRPDWNPRP  shrunken log2 fold change   0.0393
5  RRIRPRPPRLPRPRPRPVFLPRP  shrunken log2 fold change   -0.128
6  RRIRYRPPRLPRPRPRPMPLPRP  shrunken log2 fold change   -0.398
7  RRIRVRPPRLPRPRPRPMDIPRP  shrunken log2 fold change   -0.308
8  RRIRNRPPRLPRPRPRPWVEPRP  shrunken log2 fold change   -0.109
